- System: Haemophilus influenzae C.L.
- procedureDetails: MIC, standard agar-dilution assay
- Assay type: cell-based
- runConditions: agar-dilution; Haemophilus influenzae C.L., Ampicillin-sensitive strain; read-out: MIC
observationType: MIC (µg/mL)
Unit µg/mL implied. Number only.

compound: CCC1OC(=O)CC(O)C(C)C(OC2OC(C)C(O)C(N(C)C)C2O)C(CCO)CC(C)C(=O)C=CC(C)=CC1COC(=O)CCc1ccccc1 (stereo not drawn) [Compound 52, 20-Dihydro-23-O-phenylpropionyl-OMT]
MIC [µg/mL]: 8
//
compound: CCC1OC(=O)CC(O)C(C)C(OC2OC(C)C(OC3CC(C)(O)C(O)C(C)O3)C(N(C)C)C2O)C(CCNCCc2ccccc2)CC(C)C(=O)C=CC(C)=CC1CO (stereo not drawn) [Compound 16]
MIC [µg/mL]: 64
//
compound: CCC1CC(C)C(=O)C=CC(C)=CC(CN2CCC(O)CC2)C(CC)OC(=O)CC(O)C(C)C1OC1OC(C)C(O)C(N(C)C)C1O (stereo not drawn) [Compound 45]
MIC [µg/mL]: 32

Next item in the queue.
Tell me reported MIC for CCC1OC(=O)CC(O)C(C)C(OC2OC(C)C(O)C(N(C)C)C2O)C(CCOc2ccccc2)CC(C)C(=O)C=CC(C)=CC1CN1CCCCCCC1 (stereo not drawn) [Compound 34] , tested with Haemophilus influenzae C.L.. 4

###

- System: Klebsiella pneumoniae X26
- procedureDetails: MIC, standard agar-dilution assay
- Format: cell-based
- runConditions: Klebsiella pneumoniae, X26
observationType: MIC (µg/mL)
Expressed in µg/mL, but write only the number.

Worked examples, 3 molecules total:
molecule: CCC1OC(=O)CC(O)C(C)C(OC2OC(C)C(O)C(N(C)C)C2O)C(CCNCc2ccccc2)CC(C)C(=O)C=CC(C)=CC1CO (centres unmarked) [Compound 4, 20-N-Benzylamino-20-deoxy-20-dihydro-OMT]
MIC / µg/mL: 8
--
molecule: CCC1OC(=O)CC(O)C(C)C(OC2OC(C)C(OC3CC(C)(O)C(O)C(C)O3)C(N(C)C)C2O)C(CCNCc2ccccc2)CC(C)C(=O)C=CC(C)=CC1C (centres unmarked)
MIC / µg/mL: 64
--
molecule: CCC1OC(=O)CC(O)C(C)C(OC2OC(C)C(O)C(N(C)C)C2O)C(CCOC(=O)Cc2ccccc2)CC(C)C(=O)C=CC(C)=CC1CO (centres unmarked) [Compound 1, 20-O-Phenylacetyl-20-dihydro-OMT]
MIC / µg/mL: 4

Fill in: MIC of CCC1CC(C)C(=O)C=CC(C)=CC(COC(=O)Cc2ccccc2)C(CC)OC(=O)CC(O)C(C)C1OC1OC(C)C(O)C(N(C)C)C1O (centres unmarked) is ___ 4

###

- Tested on: Pasteurella hemolytica 22C
- procedureDetails: MIC, conventional broth-dilution microtiter test
- Type: cell-based
- runConditions: broth-dilution microtiter; Pasteurella hemolytica 22C; read-out: MIC
- Method: Certain of the derivatives are active against some gram-negative bacteria, such as Pasteurella species. The MIC's in Table II were determined by standard agar-dilution assays. The MIC's in Table III were obtained using a conventional broth-dilution microtiter test.
# reported MIC; entries follow
Numeric answer only, unit µg/mL assumed.

Any idea what MIC was measured for CCC1OC(=O)CC(O)C(C)C(OC2OC(C)C(O)C(N(C)C)C2O)C(CCN(C)C)CC(C)C(=O)C=CC(C)=CC1CO (centres unmarked) ? 50

Using the record for CCC1CC(C)C(=O)C=CC(C)=CC(COc2cccnc2)C(CC)OC(=O)CC(O)C(C)C1OC1OC(C)C(O)C(N(C)C)C1O (centres unmarked) [Compound 46, 23-O-(3-Pyridyl)-20-deoxy-20-dihydro-OMT] , report its MIC. 50

Requested read-out: MIC. Entry: CCC1OC(=O)CC(O)C(C)C(OC2OC(C)C(O)C(N(C)C)C2O)C(CCNCc2ccccc2)CC(C)C(=O)C=CC(C)=CC1CO (centres unmarked) [Compound 4, 20-N-Benzylamino-20-deoxy-20-dihydro-OMT] 6.25
